Consider the following compounds and their measured inhibition at 1 µM readings.
- targetOrTestSystem: His6 tagged human recombinant FABP4 (Homo sapiens, UniProt P15090)
- Construct: purchased Cayman Chemicals 10009549
- Sequence (P15090 whole entry): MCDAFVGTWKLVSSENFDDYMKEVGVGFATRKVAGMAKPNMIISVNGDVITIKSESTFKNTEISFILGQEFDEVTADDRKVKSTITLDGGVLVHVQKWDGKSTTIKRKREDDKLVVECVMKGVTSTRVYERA
- assayProtocol: FABP4 TR-FRET assay: displacement of BODIPY FL C12 fatty acid
- conditions: 1 μM compound, triplicates, inhibition of BODIPY FL C12 binding
The figure you give is taken to be in %; do not add the unit.

Consider the worked cases shown below.
Hello, please tell me recorded inhibition at 1 µM for this one: CCCCC1CCCc2c(n(Cc3ccccc3C#N)c3c(C(=O)O)cccc23)C1 (stereo not drawn)
91.5

Hello, please tell me recorded inhibition at 1 µM for this one: CCCC1CCCCc2c1c1cccc(C(=O)O)c1n2Cc1cccc(C#N)c1 (stereo not drawn)
73.3

Hello, please tell me recorded inhibition at 1 µM for this one: CCCCCCC1CCCc2c(n(Cc3ccnc(C(F)(F)F)c3)c3c(C(=O)O)cccc23)C1 (stereo not drawn)
87.6

Hello, please tell me recorded inhibition at 1 µM for this one: CCCC1CCCCc2c1c1cccc(C(=O)O)c1n2Cc1cccc(C(N)=O)c1 (stereo not drawn)
38.8

Hello, please tell me recorded inhibition at 1 µM for this one: CCCCCCC1CCCc2c(n(Cc3cccc(F)c3)c3c(C(=O)O)cccc23)C1 (stereo not drawn)
93.6

Hello, please tell me recorded inhibition at 1 µM for this one: CCCCC1CCCc2c1c1cccc(C(=O)O)c1n2Cc1cccc(C#N)c1 (stereo not drawn)
25.3

Hello, please tell me recorded inhibition at 1 µM for this one: CCCCCCC1CCCc2c(n(Cc3ccc(C#N)cc3)c3c(C(=O)O)cccc23)C1 (stereo not drawn)
81.3

Hello, please tell me recorded inhibition at 1 µM for this one: NC(=O)c1cccc(Cn2c3c(c4cccc(C(=O)O)c42)C(CCc2ccccc2)CCC3)c1 (stereo not drawn)
44.1

Further cases:
Hello, please tell me recorded inhibition at 1 µM for this one: CCCCCC1CCCCc2c1c1cccc(C(=O)O)c1n2Cc1cccc(C(N)=O)c1 (stereo not drawn)
81.1
